These measurements were taken from ChEMBL document CHEMBL5728776.

- system: Glutathione reductase, mitochondrial (Homo sapiens)
- Sequence (P00390 whole entry): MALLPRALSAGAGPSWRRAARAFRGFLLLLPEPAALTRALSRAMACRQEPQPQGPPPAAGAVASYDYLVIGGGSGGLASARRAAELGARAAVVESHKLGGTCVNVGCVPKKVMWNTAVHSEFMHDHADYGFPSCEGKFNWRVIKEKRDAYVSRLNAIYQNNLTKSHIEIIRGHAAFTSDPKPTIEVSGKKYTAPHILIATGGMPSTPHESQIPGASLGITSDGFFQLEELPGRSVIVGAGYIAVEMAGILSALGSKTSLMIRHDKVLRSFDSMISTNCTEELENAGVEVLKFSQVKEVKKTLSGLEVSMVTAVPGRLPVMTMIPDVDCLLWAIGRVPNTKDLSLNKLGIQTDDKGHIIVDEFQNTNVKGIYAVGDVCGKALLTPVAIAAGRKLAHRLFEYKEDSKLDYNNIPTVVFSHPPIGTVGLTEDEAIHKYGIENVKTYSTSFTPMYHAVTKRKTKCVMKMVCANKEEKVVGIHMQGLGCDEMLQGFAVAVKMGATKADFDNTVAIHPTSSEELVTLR
- measurement description: Inhibition of Recombinant TrxR1: Small molecule inhibition of recombinant thioredoxin reductase 1 (TrxR1) and gluthathione reductase (GR) was examined in 96-well plate format. 30 nM TrxR1 was incubated in the presence of 250 μM NADPH, 0.1 mg/ml BSA, and various concentrations of compound (1% DMSO final) in 50 mM Tris (pH 7.5) and 2 mM EDTA buffer for 15 minutes. Following the incubation period, 2 mM DTNB was added to each well and the change in O.D. at 412 nm was followed. Percent activity was determined using DMSO vehicle and no TrxR1 (blank) controls. 2 nM GR was incubated in the presence of 250 μM NADPH, 0.1 mg/ml BSA, and various concentrations of compounds (1% DMSO final) in 50 mM Tris (pH 7.5) and 2 mM EDTA buffer for 15 minutes. Following the incubation period, 1 mM GSSG was added to each well and the change in O.D. at 340 nm was followed. Percent activity was determined using DMSO vehicle and no GR (blank) controls.
parameter measured: IC50

Form field - read-out: IC50; system: Glutathione reductase, mitochondrial (Homo sapiens); submitted item: `CN(C)c1ccc([N+](=O)[O-])c(S(=O)(=O)Cc2ccccc2)n1`
> 100 µM

====

- system: Thioredoxin reductase 1, cytoplasmic (Homo sapiens)
- Sequence (Q16881 whole entry): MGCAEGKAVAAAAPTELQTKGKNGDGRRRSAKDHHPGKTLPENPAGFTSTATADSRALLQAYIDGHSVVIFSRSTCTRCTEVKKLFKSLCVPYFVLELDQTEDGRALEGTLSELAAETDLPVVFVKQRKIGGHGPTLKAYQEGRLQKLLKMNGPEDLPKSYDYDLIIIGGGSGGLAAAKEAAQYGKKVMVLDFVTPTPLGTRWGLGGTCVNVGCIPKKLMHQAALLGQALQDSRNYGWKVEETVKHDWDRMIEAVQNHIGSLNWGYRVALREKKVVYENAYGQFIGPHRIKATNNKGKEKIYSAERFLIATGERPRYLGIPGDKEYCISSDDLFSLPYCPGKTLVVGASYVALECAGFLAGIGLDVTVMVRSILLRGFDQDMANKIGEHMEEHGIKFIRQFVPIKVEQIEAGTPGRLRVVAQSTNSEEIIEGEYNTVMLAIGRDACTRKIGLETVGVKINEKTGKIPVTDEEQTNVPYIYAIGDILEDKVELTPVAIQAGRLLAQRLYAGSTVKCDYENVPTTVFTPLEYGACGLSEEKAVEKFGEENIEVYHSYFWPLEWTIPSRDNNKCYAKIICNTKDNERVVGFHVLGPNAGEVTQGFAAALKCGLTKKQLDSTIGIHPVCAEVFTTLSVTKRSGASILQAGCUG
- measurement description: Inhibition of Recombinant TrxR1: Small molecule inhibition of recombinant thioredoxin reductase 1 (TrxR1) and gluthathione reductase (GR) was examined in 96-well plate format. 30 nM TrxR1 was incubated in the presence of 250 μM NADPH, 0.1 mg/ml BSA, and various concentrations of compound (1% DMSO final) in 50 mM Tris (pH 7.5) and 2 mM EDTA buffer for 15 minutes. Following the incubation period, 2 mM DTNB was added to each well and the change in O.D. at 412 nm was followed. Percent activity was determined using DMSO vehicle and no TrxR1 (blank) controls. 2 nM GR was incubated in the presence of 250 μM NADPH, 0.1 mg/ml BSA, and various concentrations of compounds (1% DMSO final) in 50 mM Tris (pH 7.5) and 2 mM EDTA buffer for 15 minutes. Following the incubation period, 1 mM GSSG was added to each well and the change in O.D. at 340 nm was followed. Percent activity was determined using DMSO vehicle and no GR (blank) controls.
parameter measured: pIC50
# pIC50 is unitless: minus log10 of the molar concentration; print number only

Recorded pIC50 of `CN(C)c1ccc([N+](=O)[O-])c(S(=O)(=O)Cc2ccccc2)n1` , please.
6.56
